Provide the reported log10 IC50 of each item.
Target: human TPH1 (Homo sapiens)
Assay: biochemical
Hey, these are logged values: log10 of IC50, nM being the unit before logging.

Request body: readout log10 IC50, system human TPH1 (Homo sapiens), query COC(=O)COc1cc(C2c3c(nc4cc(Cl)ccn34)CCN2C(=O)COc2ccc(CN3CCOCC3)cc2Cl)ccc1OC (centres unmarked) . Return the value.
1.94

Request body: readout log10 IC50, system human TPH1 (Homo sapiens), query CCc1ccccc1OCC(=O)N1CCc2nc3cc(C(F)(F)F)ccn3c2C1c1ccc(OC)c(OC)c1 (centres unmarked) . Return the value.
2.07

Request body: readout log10 IC50, system human TPH1 (Homo sapiens), query COc1ccc(C2c3c(nc4cc(C(F)(F)F)ccn34)CCN2C(=O)COc2ccc3ccccc3c2)cc1O (centres unmarked) . Return the value.
1.65

Request body: readout log10 IC50, system human TPH1 (Homo sapiens), query O=C(COc1ccc(C(F)(F)F)nc1Cl)N1CCc2nc3cccnn3c2C1c1ncc(C2CC2)cc1F (centres unmarked) . Return the value.
2.46

Request body: readout log10 IC50, system human TPH1 (Homo sapiens), query COc1ccc(C2c3c(nc4cc(C(F)(F)F)ccn34)CCN2C(=O)COc2ccc3ccccc3c2)cc1OC(F)F (centres unmarked) . Return the value.
1.61

Request body: readout log10 IC50, system human TPH1 (Homo sapiens), query COc1ccc(COc2cc(C3c4c(nc5cc(Cl)ccn45)CCN3C(=O)COc3ccc4ccccc4c3)ccc2OC)cc1 (centres unmarked) . Return the value.
1.78

Request body: readout log10 IC50, system human TPH1 (Homo sapiens), query COc1cccc(C2c3c(nc4cc(C(F)(F)F)ccn34)CCN2C(=O)COc2ccc3ccccc3c2)c1 (centres unmarked) . Return the value.
2.36

Request body: readout log10 IC50, system human TPH1 (Homo sapiens), query COc1ccc(C2c3c(nc4cc(C(F)(F)F)ccn34)CCN2C(=O)COc2nn(C)c(C(F)(F)F)c2Cl)cc1OC (centres unmarked) . Return the value.
1.89

Request body: readout log10 IC50, system human TPH1 (Homo sapiens), query O=C(COc1ccc(CN2CCOCC2)cc1Cl)N1CCc2nc3cc(C(F)(F)F)ccn3c2C1c1ccc(OC(F)(F)F)cc1 (centres unmarked) . Return the value.
2.13

Request body: readout log10 IC50, system human TPH1 (Homo sapiens), query CCc1cc(C)c(C(N)=O)cc1OCC(=O)N1CCc2nc3ccccn3c2C1c1ccc(OC)c(OC)c1 (centres unmarked) . Return the value.
2.39

Request body: readout log10 IC50, system human TPH1 (Homo sapiens), query CCc1c(OCC(=O)N2CCc3nc4ccccn4c3C2c2ccc(OC)c(OC)c2)ccc2ccccc12 (centres unmarked) . Return the value.
0.60

Request body: readout log10 IC50, system human TPH1 (Homo sapiens), query Cc1nc(C)c(C2c3c(nc4cc(C(F)(F)F)ccn34)CCN2C(=O)COc2ccc(C(=O)N(C)C3CC3)nc2Cl)s1 (centres unmarked) . Return the value.
1.62

Request body: readout log10 IC50, system human TPH1 (Homo sapiens), query Cc1ccc(C2c3c(nc4cc(C(F)(F)F)ccn34)CCN2C(=O)COc2ccc(NS(C)(=O)=O)nc2Cl)c(F)c1 (centres unmarked) . Return the value.
1.18

Request body: readout log10 IC50, system human TPH1 (Homo sapiens), query Cc1ccc(C2c3c(nc4cc(C(F)(F)F)ccn34)CCN2C(=O)COc2ccc(CN3CCOCC3)cc2Cl)cc1C (centres unmarked) . Return the value.
1.36

----------
Target: human TPH1 (Homo sapiens, UniProt P17752)
Sequence (P17752 1-444): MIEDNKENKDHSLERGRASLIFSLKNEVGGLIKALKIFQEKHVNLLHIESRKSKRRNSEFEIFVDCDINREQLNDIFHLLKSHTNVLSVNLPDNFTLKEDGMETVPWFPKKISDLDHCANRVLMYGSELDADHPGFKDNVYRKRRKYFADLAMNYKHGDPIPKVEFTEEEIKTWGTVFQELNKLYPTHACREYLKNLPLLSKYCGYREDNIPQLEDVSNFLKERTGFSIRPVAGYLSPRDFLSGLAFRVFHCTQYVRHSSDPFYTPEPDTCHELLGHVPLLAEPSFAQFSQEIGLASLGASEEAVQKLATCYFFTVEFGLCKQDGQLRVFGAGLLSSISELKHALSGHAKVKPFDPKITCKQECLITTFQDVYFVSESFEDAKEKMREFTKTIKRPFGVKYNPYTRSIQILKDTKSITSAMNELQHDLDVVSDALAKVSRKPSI
Assay: biochemical
ENDPOINT NAME: log10 of IC50 (log10 of the value in nM)
Hey, these are logged values: log10 of IC50, nM being the unit before logging.

Request body: readout log10 of IC50, system human TPH1 (Homo sapiens, UniProt P17752), query CCc1nc(C)ccc1OCC(=O)N1CCc2nc3ccccn3c2C1c1ccc(Cl)nc1F (stereo not shown) [Example 1.11.3] . Return the value.
2.38

Request body: readout log10 of IC50, system human TPH1 (Homo sapiens, UniProt P17752), query O=C(COc1ccc(CN2CCOCC2)cc1Cl)N1CCc2nc3cc(C(F)(F)F)ccn3c2C1c1ncccc1F (stereo not shown) [Example 3.21.2] . Return the value.
2.54

Request body: readout log10 of IC50, system human TPH1 (Homo sapiens, UniProt P17752), query COc1ccc(C2c3c(nc4cc(C(F)(F)F)ccn34)CCN2C(=O)COc2ccc(CN3CCOCC3)nc2Cl)cc1OC (stereo not shown) [Example 3.1.27] . Return the value.
1.92

Request body: readout log10 of IC50, system human TPH1 (Homo sapiens, UniProt P17752), query COc1ccc(C2c3c(nc4ccc(F)cn34)CCN2C(=O)COc2ccc3ccccc3c2)cc1OC (stereo not shown) [Example 11.1.1] . Return the value.
2.09

Request body: readout log10 of IC50, system human TPH1 (Homo sapiens, UniProt P17752), query COc1ccc(C2c3c(nc4ccc(C(F)(F)F)cn34)CCN2C(=O)COc2ccc3ccccc3c2)cc1OC (stereo not shown) [Example 12.1.1] . Return the value.
2.26

Request body: readout log10 of IC50, system human TPH1 (Homo sapiens, UniProt P17752), query CS(=O)(=O)Nc1ccc(OCC(=O)N2CCc3nc4ccccn4c3C2c2ccc(OCCO)cc2F)c(Cl)n1 (stereo not shown) [Example 1.22.2] . Return the value.
1.58

Request body: readout log10 of IC50, system human TPH1 (Homo sapiens, UniProt P17752), query O=C(COc1ccc(CN2CCOCC2)cc1Cl)N1CCc2nc3cc(C(F)(F)F)ccn3c2C1c1cnn(-c2ccccc2)c1 (stereo not shown) [Example 3.41.2] . Return the value.
1.38

Request body: readout log10 of IC50, system human TPH1 (Homo sapiens, UniProt P17752), query O=C(COc1ccc(N2CCOCC2)nc1Cl)N1CCc2nc3ccccn3c2C1c1nc(-c2ccccc2)no1 (stereo not shown) [Example 1.8.1] . Return the value.
1.20

Request body: readout log10 of IC50, system human TPH1 (Homo sapiens, UniProt P17752), query COc1cc(F)c(C2c3c(nc4cc(C(F)(F)F)ccn34)CCN2C(=O)COc2ccc3ccccc3c2)cc1OC (stereo not shown) [Example 3.18.1] . Return the value.
0.70

Request body: readout log10 of IC50, system human TPH1 (Homo sapiens, UniProt P17752), query CCc1nc(C)ccc1OCC(=O)N1CCc2nc3cc(C(F)(F)F)ccn3c2C1c1ccc(C)cc1F (stereo not shown) [Example 3.22.4] . Return the value.
1.23

Request body: readout log10 of IC50, system human TPH1 (Homo sapiens, UniProt P17752), query O=C(COc1ccc[n+]([O-])c1Cl)N1CCc2nc3cc(C(F)(F)F)ccn3c2C1c1ccc(C2CC2)cc1F (stereo not shown) [Example 3.5.4] . Return the value.
2.32

Request body: readout log10 of IC50, system human TPH1 (Homo sapiens, UniProt P17752), query COc1cc(F)c(C2c3c(nc4cc(C(F)(F)F)ccn34)CCN2C(=O)COc2ccc(CN3CCOCC3)cc2Cl)cc1OC (stereo not shown) [Example 3.18.2] . Return the value.
0.70

Request body: readout log10 of IC50, system human TPH1 (Homo sapiens, UniProt P17752), query COc1cc(F)c(C2c3c(nc4cc(C(F)(F)F)ccn34)CCN2C(=O)COc2ccc(C3(N4CCOCC4)COC3)cc2Cl)cc1OC (stereo not shown) [Example 3.18.10] . Return the value.
1.40

Request body: readout log10 of IC50, system human TPH1 (Homo sapiens, UniProt P17752), query O=C(COc1ccc2ccccc2c1)N1CCc2nc3cc(C(F)(F)F)ccn3c2C1c1ccc(F)c(F)c1 (stereo not shown) [Example 3.34.1] . Return the value.
2.69

Request body: readout log10 of IC50, system human TPH1 (Homo sapiens, UniProt P17752), query COc1ccc(C2c3c(nc4cc(C(F)(F)F)ccn34)CCN2C(=O)COc2cccnc2Br)cc1OC (stereo not shown) [Example 3.1.17] . Return the value.
1.30

Request body: readout log10 of IC50, system human TPH1 (Homo sapiens, UniProt P17752), query COc1ccc(C2c3c(nc4cc(C(F)(F)F)ccn34)CCN2C(=O)COc2cnccc2Cl)cc1OC (stereo not shown) [Example 3.1.18] . Return the value.
2.37

Request body: readout log10 of IC50, system human TPH1 (Homo sapiens, UniProt P17752), query CCc1nc(C)ccc1OCC(=O)N1CCc2nc3cc(C(F)(F)F)ccn3c2C1c1ccc(C2CC2)cc1F (stereo not shown) [Example 3.5.1] . Return the value.
1.04

Request body: readout log10 of IC50, system human TPH1 (Homo sapiens, UniProt P17752), query Cn1nc(OCC(=O)N2CCc3nc4cc(C(F)(F)F)ccn4c3C2c2ccc(Cl)cc2F)c(Cl)c1C(F)(F)F (stereo not shown) [Example 3.4.3] . Return the value.
1.81

Request body: readout log10 of IC50, system human TPH1 (Homo sapiens, UniProt P17752), query CC(C)(O)c1ccc(C2c3c(nc4ccccn34)CCN2C(=O)COc2ccc(NS(C)(=O)=O)nc2Cl)c(F)c1 (stereo not shown) [Example 1.16.2] . Return the value.
2.74

Request body: readout log10 of IC50, system human TPH1 (Homo sapiens, UniProt P17752), query CS(=O)(=O)Nc1ccc(OCC(=O)N2CCc3nc4ccccn4c3C2c2ccc(OC(F)(F)F)cc2F)c(Cl)n1 (stereo not shown) [Example 1.19.1] . Return the value.
2.05

Request body: readout log10 of IC50, system human TPH1 (Homo sapiens, UniProt P17752), query COc1ccc(C2c3c(nc4cc(C(F)(F)F)ccn34)CCN2C(=O)COc2ccc(CN3CCOCC3)cc2Cl)cn1 (stereo not shown) [Example 3.6.2] . Return the value.
1.70

Request body: readout log10 of IC50, system human TPH1 (Homo sapiens, UniProt P17752), query O=C(COc1cccnc1Cl)N1CCc2nc3ccccn3c2C1c1ccc(C2CC2)cc1F (stereo not shown) [Example 1.5.4] . Return the value.
1.53

Request body: readout log10 of IC50, system human TPH1 (Homo sapiens, UniProt P17752), query Cc1ccc(C2c3c(nc4ccccn34)CCN2C(=O)COc2ccc(Cl)cc2Cl)cc1C (stereo not shown) [Example 1.10.1] . Return the value.
2.65

Request body: readout log10 of IC50, system human TPH1 (Homo sapiens, UniProt P17752), query COc1ccc(C2c3c(nc4cc(Cl)ccn34)CCN2C(=O)COc2nn(C)c(C(F)(F)F)c2Cl)c(F)c1 (stereo not shown) [Example 2.3.3] . Return the value.
2.32

Request body: readout log10 of IC50, system human TPH1 (Homo sapiens, UniProt P17752), query COc1cc(F)c(C2c3c(nc4cc(C(F)(F)F)ccn34)CCN2C(=O)COc2ccc3c(c2)CN(C(C)=O)CC3)cc1OC (stereo not shown) [Example 3.18.6] . Return the value.
0.78

Request body: readout log10 of IC50, system human TPH1 (Homo sapiens, UniProt P17752), query COc1ccc(C2c3c(nc4ccc(Br)cn34)CCN2C(=O)COc2ccc3ccccc3c2)cc1OC (stereo not shown) [Example 10.1.1] . Return the value.
2.09

Request body: readout log10 of IC50, system human TPH1 (Homo sapiens, UniProt P17752), query O=C(COc1ccc(CN2CCOCC2)cc1Cl)N1CCc2nc3cc(C(F)(F)F)ccn3c2C1c1nc2ccccc2s1 (stereo not shown) [Example 3.44.2] . Return the value.
1.36

Request body: readout log10 of IC50, system human TPH1 (Homo sapiens, UniProt P17752), query COCCOc1ccc(C2c3c(nc4ccccn34)CCN2C(=O)COc2ccc(NS(C)(=O)=O)nc2Cl)c(F)c1 (stereo not shown) [Example 1.21.2] . Return the value.
1.90
